Cited source for all entries: patent US11230591

Pair-wise inhibition (%) values, listed per item
# ASSAY_SYSTEM: recombinant pentameric gH complex (Towne strain) (human cytomegalovirus, Towne strain) (UniProt P17176)
# Sequence (P17176 30-715, one chain of several): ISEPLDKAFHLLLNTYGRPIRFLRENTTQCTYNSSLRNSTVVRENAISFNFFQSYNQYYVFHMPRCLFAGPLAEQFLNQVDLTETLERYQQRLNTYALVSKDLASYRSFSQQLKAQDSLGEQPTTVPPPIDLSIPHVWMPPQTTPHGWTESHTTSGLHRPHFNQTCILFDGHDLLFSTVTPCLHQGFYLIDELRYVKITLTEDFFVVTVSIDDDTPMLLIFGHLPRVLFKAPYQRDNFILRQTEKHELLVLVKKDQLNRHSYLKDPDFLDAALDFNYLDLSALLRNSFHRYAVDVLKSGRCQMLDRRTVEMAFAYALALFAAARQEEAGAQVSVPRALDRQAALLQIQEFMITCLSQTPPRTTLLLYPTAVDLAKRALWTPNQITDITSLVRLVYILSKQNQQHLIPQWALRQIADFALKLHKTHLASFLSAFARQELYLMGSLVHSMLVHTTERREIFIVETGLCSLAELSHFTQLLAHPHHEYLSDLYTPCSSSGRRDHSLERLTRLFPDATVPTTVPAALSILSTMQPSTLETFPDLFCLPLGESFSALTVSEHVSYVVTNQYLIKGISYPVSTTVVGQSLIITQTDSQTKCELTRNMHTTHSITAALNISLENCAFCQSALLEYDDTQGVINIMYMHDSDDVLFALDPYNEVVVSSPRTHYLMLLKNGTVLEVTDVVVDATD
# TEST_SUMMARY: BLI competition on His-pentamer; competitor (antibody 2): 3-15
# output: bare number, implied unit %

# BINDER, Pair-wise inhibition (%)
records = [
    ("2-25 (antibody, V domains shown) VH: QVQLVESGAEVKKPGALVKVSCKASGYTFTNYAIHWVRQASGQRLEWMGWINAGRGNTKYSQKFQGRVTITRDTSASTAYMELSSLRSEDAAVYFCARDESTGDYYYYMDVWGKGTTVTVSS VL: SYELTQPPSVSVSPGQTASITCSGDRLDDKYASWYQQKAGQSPVLVIYQDNKRPSGIPERFSGSNSGNTATLTISGTQAMDEADYYCQAWDSDTYVFGTGTKVTVL", 10),
    ("3-16 (antibody, V domains shown) VH: QVQVVQSGAEVKKPGASVMVSCKTSGYRFTIYSIAWMRQAPGQGLEWMGSINTYNGNTKYAEKFQGRVTMSRDTSTSTAYMEVRSLGSADTAMYYCARDAENWGFFDDWGQGTLVTVSS VL: EIVLTQSPGTVSLSPGERVTLSCRASQSVGRHLAWYQQKPGQPPRLLIYGASTRATGVPDRFSGSGSETEFTLAISSLQSEDFALYYCQQYNTWPYTFGQGTKLEIK", 95),
]

Q. Entry 3-7 (antibody, V domains shown) VH: QVQLVQSGAEVKKPGASVKVSCKTSGYTFNTYAISWVRQAPGQGLEWVGWINTYSGSTKYAQKVQGRVTMTTDTSTSTAYMELRGLRSDDTAVYYCARDGYNWGFLDFWGQGSLVTVSS VL: DIQMTQSPSSLSASVGDRVTITCRASQGISNYLAWYQQKPGKLPKLLIYAASTLQSGVPSRFSGSGSGTDFTLTISSLQPEDVASYYCQKYNSAPLTFGPGTKVDIK has what Pair-wise inhibition (%)?
A. 102
